biological target: Human CD38 (Homo sapiens (Human), UniProt P28907)
Sequence (P28907 whole entry): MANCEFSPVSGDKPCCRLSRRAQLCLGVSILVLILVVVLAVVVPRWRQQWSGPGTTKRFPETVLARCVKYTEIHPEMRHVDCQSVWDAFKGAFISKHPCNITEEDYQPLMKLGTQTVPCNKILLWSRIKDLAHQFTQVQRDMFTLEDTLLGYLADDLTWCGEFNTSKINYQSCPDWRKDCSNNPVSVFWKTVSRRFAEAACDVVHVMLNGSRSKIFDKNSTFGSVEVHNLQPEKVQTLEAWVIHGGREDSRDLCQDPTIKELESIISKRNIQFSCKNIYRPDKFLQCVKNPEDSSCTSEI
pIC50: −log10 of the molar value.
List of pIC50 values.

Sample answers from the record:
> print(dat)
                                   molecule  measure.name      measured
1  COCCO[C@H]1CC[C@H](NC(=O)c2nc(-c3cncs3)cc3cn[nH]c23)CC1         pIC50  6.00 to 7.00
2  C[C@H](O)[C@H]1CC[C@H](NC(=O)c2nc(-n3ccnc3)cc3cn[nH]c23)CC1 [Example 192a]         pIC50        > 8.00

Give pIC50 only, for O=C(N[C@@H]1CCNC[C@H]1F)c1nc(-n2ccnc2)nc2cc[nH]c12 [Example 123b] , using Human CD38 (Homo sapiens (Human), UniProt P28907) data.
6.00 to 7.00

Give pIC50 only, for "O=C(NC1CCN(CC(F)(F)F)CC1)c1nc(-n2ccnc2)nc2cc[nH]c12" , using Human CD38 (Homo sapiens (Human), UniProt P28907) data.
7.00 to 8.00

Give pIC50 only, for CO[C@]1(C)CC[C@H](NC(=O)c2nc(-n3ccnc3)nc3cc[nH]c23)CC1 [Example 128b] , using Human CD38 (Homo sapiens (Human), UniProt P28907) data.
7.00 to 8.00

Give pIC50 only, for "O=C(N[C@H]1CC[C@H](C(F)(F)F)CC1)c1nc(-n2ccnc2)nc2ccsc12" , using Human CD38 (Homo sapiens (Human), UniProt P28907) data.
> 8.00

Give pIC50 only, for "C[C@]1(NCC(F)(F)F)CC[C@H](NC(=O)c2nc(-n3ccnc3)cc3cn[nH]c23)CC1" , using Human CD38 (Homo sapiens (Human), UniProt P28907) data.
6.00 to 7.00

Give pIC50 only, for "COCCO[C@H]1CC[C@H](NC(=O)c2cc(-n3ccnc3)cc3nc[nH]c23)CC1" , using Human CD38 (Homo sapiens (Human), UniProt P28907) data.
6.00 to 7.00
